# Assay procedure: Plasma concentration versus time of Compound I and metabolite Compound III in patients dosed QD or BID with Form B of Compound II plus fulvestrant
# Format: in vivo, human
# Experimental conditions: human, plasma, oral, 650 mg, 650 mg QD of Form B, Day 1, 8.0 h, Mean; read-out: Compound III Concentration
Quantity: concentration at 8 h
The reply must contain the numeric value and, after it, the unit.

Qu. Determine its reported concentration at 8 h: `O=C1NCC2(CCCCC2)n2c1cc1cnc(Nc3ccc(N4CCNCC4)cn3)nc12`
Ans. 10.1 ng/mL

###

# Assay procedure: Plasma concentration versus time of Compound I and metabolite Compound III in patients dosed QD or BID with Form B of Compound II plus fulvestrant
# Format: in vivo, human
# Experimental conditions: human, plasma, oral, 400 mg, 400 mg QD of Form B, Day 1, 12.0 h, Mean; read-out: Compound I Concentration
Quantity: concentration at 12 h (ng/mL)
Give the value in ng/mL but do not write ng/mL after it.

Qu. Determine its reported concentration at 12 h: CC(C)N1CCN(c2ccc(Nc3ncc4cc5n(c4n3)C3(CCCCC3)CNC5=O)nc2)CC1 [Compound I]
Ans. 7.69
